system: Pseudomonas aeruginosa; assay: Antimicrobial activity against Pseudomonas aeruginosa mutGR1 overexpressing mexXY mutant by twofold macrodilution method; assay type: functional
Consider the following molecules; for each one, report its MIC.
Give bare numbers, in µg/mL.

Solved cases below.
CC1(C)S[C@@H]2[C@H](NC(=O)[C@H](C(=O)O)c3ccsc3)C(=O)N2[C@H]1C(=O)O [TICARCILLIN] :: 32
CO[C@@H]1[C@@H](OC(N)=O)[C@@H](O)[C@H](Oc2ccc3c(O)c(NC(=O)c4ccc(O)c(CC=C(C)C)c4)c(=O)oc3c2C)OC1(C)C [NOVOBIOCIN] :: 512
NC[C@H]1O[C@H](O[C@H]2[C@H](O)[C@@H](O[C@H]3O[C@H](CO)[C@@H](O)[C@H](N)[C@H]3O)[C@H](N)C[C@@H]2N)[C@H](N)C[C@@H]1O [TOBRAMYCIN] :: 1
CO/N=C(\C(=O)N[C@@H]1C(=O)N2C(C(=O)[O-])=C(C[N+]3(C)CCCC3)CS[C@H]12)c1csc(N)n1 :: 8

Field: next molecule
Recall the recorded MIC for NCC[C@H](O)C(=O)N[C@@H]1C[C@H](N)[C@@H](O[C@H]2O[C@H](CN)[C@@H](O)[C@H](O)[C@H]2O)[C@H](O)[C@H]1O[C@H]1O[C@H](CO)[C@@H](O)[C@H](N)[C@H]1O [AMIKACIN] with Pseudomonas aeruginosa and state it.
8

* * *

system: Pseudomonas aeruginosa; assay: Antimicrobial activity against Pseudomonas aeruginosa isolate 615S obtained from cystic fibrosis patient by disk diffusion method; format: functional
experimentalReadout: MIC (µg/mL)
Give bare numbers, in µg/mL.

Solved cases below.
O=C(O)c1cn(C2CC2)c2cc(N3CCNCC3)c(F)cc2c1=O [CIPROFLOXACIN] :: 4
NC[C@H]1O[C@H](O[C@H]2[C@H](O)[C@@H](O[C@H]3O[C@H](CO)[C@@H](O)[C@H](N)[C@H]3O)[C@H](N)C[C@@H]2N)[C@H](N)C[C@@H]1O [TOBRAMYCIN] :: 0.25

Field: next compound
Quick one: MIC for CC1(C)S[C@@H]2[C@H](NC(=O)[C@H](C(=O)O)c3ccsc3)C(=O)N2[C@H]1C(=O)O [TICARCILLIN] ?
1

* * *

system: Pseudomonas aeruginosa; experiment: Antimicrobial activity against Pseudomonas aeruginosa isolate 2721 obtained from cystic fibrosis patient by agar dilution method
Binarize MIC at 8 mg/L; below is t, at or above is f.

Worked set:
NC[C@H]1O[C@H](O[C@H]2[C@H](O)[C@@H](O[C@H]3O[C@H](CO)[C@@H](O)[C@H](N)[C@H]3O)[C@H](N)C[C@@H]2N)[C@H](N)C[C@@H]1O :: t
C[C@H]1[C@H](NC(=O)/C(=N\OC(C)(C)C(=O)O)c2csc(N)n2)C(=O)N1S(=O)(=O)O :: t
CO[C@@H]1[C@@H](OC(N)=O)[C@@H](O)[C@H](Oc2ccc3c(O)c(NC(=O)c4ccc(O)c(CC=C(C)C)c4)c(=O)oc3c2C)OC1(C)C :: f
CC(C)(O/N=C(\C(=O)N[C@@H]1C(=O)N2C(C(=O)[O-])=C(C[n+]3ccccc3)CS[C@H]12)c1csc(N)n1)C(=O)O :: t
NCC[C@H](O)C(=O)N[C@@H]1C[C@H](N)[C@@H](O[C@H]2O[C@H](CN)[C@@H](O)[C@H](O)[C@H]2O)[C@H](O)[C@H]1O[C@H]1O[C@H](CO)[C@@H](O)[C@H](N)[C@H]1O :: f
CC1(C)S[C@@H]2[C@H](NC(=O)[C@H](C(=O)O)c3ccsc3)C(=O)N2[C@H]1C(=O)O :: t

As a next step, examine the compound that follows.
Problem: For the compound `O=C(O)c1cn(C2CC2)c2cc(N3CCNCC3)c(F)cc2c1=O` , is MIC under 8 mg/L?
t

* * *

system: Pseudomonas aeruginosa; assay: Antimicrobial activity against Pseudomonas aeruginosa isolate 2933 obtained from cystic fibrosis patient by disk diffusion method; format: functional
experimentalReadout: MIC (µg/mL)
Answers are plain numbers, in µg/mL.

Solved cases below.
CC(C)(O/N=C(\C(=O)N[C@@H]1C(=O)N2C(C(=O)[O-])=C(C[n+]3ccccc3)CS[C@H]12)c1csc(N)n1)C(=O)O [CEFTAZIDIME] :: 0.5
CC1(C)S[C@@H]2[C@H](NC(=O)[C@H](C(=O)O)c3ccsc3)C(=O)N2[C@H]1C(=O)O [TICARCILLIN] :: 0.5
C[C@H]1[C@H](NC(=O)/C(=N\OC(C)(C)C(=O)O)c2csc(N)n2)C(=O)N1S(=O)(=O)O [AZTREONAM] :: 0.25

Batch of 4 compounds: report MIC for each.
1. NC[C@H]1O[C@H](O[C@H]2[C@H](O)[C@@H](O[C@H]3O[C@H](CO)[C@@H](O)[C@H](N)[C@H]3O)[C@H](N)C[C@@H]2N)[C@H](N)C[C@@H]1O [TOBRAMYCIN]
2. NCC[C@H](O)C(=O)N[C@@H]1C[C@H](N)[C@@H](O[C@H]2O[C@H](CN)[C@@H](O)[C@H](O)[C@H]2O)[C@H](O)[C@H]1O[C@H]1O[C@H](CO)[C@@H](O)[C@H](N)[C@H]1O [AMIKACIN]
3. CO[C@@H]1[C@@H](OC(N)=O)[C@@H](O)[C@H](Oc2ccc3c(O)c(NC(=O)c4ccc(O)c(CC=C(C)C)c4)c(=O)oc3c2C)OC1(C)C [NOVOBIOCIN]
4. CO/N=C(\C(=O)N[C@@H]1C(=O)N2C(C(=O)[O-])=C(C[N+]3(C)CCCC3)CS[C@H]12)c1csc(N)n1

1. 4
2. 32
3. 8
4. 16

* * *

Consider the following compounds; for each one, report its MIC.
system: Pseudomonas aeruginosa; assay: Antimicrobial activity against Pseudomonas aeruginosa isolate 2715 obtained from cystic fibrosis patient by agar dilution method
One number for each entry, in µg/mL.

C[C@H]1[C@H](NC(=O)/C(=N\OC(C)(C)C(=O)O)c2csc(N)n2)C(=O)N1S(=O)(=O)O [AZTREONAM] :: 0.5
CO[C@@H]1[C@@H](OC(N)=O)[C@@H](O)[C@H](Oc2ccc3c(O)c(NC(=O)c4ccc(O)c(CC=C(C)C)c4)c(=O)oc3c2C)OC1(C)C [NOVOBIOCIN] :: 16
O=C(O)c1cn(C2CC2)c2cc(N3CCNCC3)c(F)cc2c1=O [CIPROFLOXACIN] :: 1
NC[C@H]1O[C@H](O[C@H]2[C@H](O)[C@@H](O[C@H]3O[C@H](CO)[C@@H](O)[C@H](N)[C@H]3O)[C@H](N)C[C@@H]2N)[C@H](N)C[C@@H]1O [TOBRAMYCIN] :: 2
CC1(C)S[C@@H]2[C@H](NC(=O)[C@H](C(=O)O)c3ccsc3)C(=O)N2[C@H]1C(=O)O [TICARCILLIN] :: 2

Batch of 2 compounds: report MIC for each.
1. CO/N=C(\C(=O)N[C@@H]1C(=O)N2C(C(=O)[O-])=C(C[N+]3(C)CCCC3)CS[C@H]12)c1csc(N)n1
2. NCC[C@H](O)C(=O)N[C@@H]1C[C@H](N)[C@@H](O[C@H]2O[C@H](CN)[C@@H](O)[C@H](O)[C@H]2O)[C@H](O)[C@H]1O[C@H]1O[C@H](CO)[C@@H](O)[C@H](N)[C@H]1O [AMIKACIN]

1: 16; 2: 8

* * *

test system: Pseudomonas aeruginosa; test: Antimicrobial activity against Pseudomonas aeruginosa isolate 615S obtained from cystic fibrosis patient by disk diffusion method; format: functional
experimentalReadout: MIC (µg/mL)
Give bare numbers, in µg/mL.

C[C@H]1[C@H](NC(=O)/C(=N\OC(C)(C)C(=O)O)c2csc(N)n2)C(=O)N1S(=O)(=O)O :: 0.12

Batch of 2 molecules: report MIC for each.
1. NCC[C@H](O)C(=O)N[C@@H]1C[C@H](N)[C@@H](O[C@H]2O[C@H](CN)[C@@H](O)[C@H](O)[C@H]2O)[C@H](O)[C@H]1O[C@H]1O[C@H](CO)[C@@H](O)[C@H](N)[C@H]1O
2. CO[C@@H]1[C@@H](OC(N)=O)[C@@H](O)[C@H](Oc2ccc3c(O)c(NC(=O)c4ccc(O)c(CC=C(C)C)c4)c(=O)oc3c2C)OC1(C)C

1: 2; 2: 64

* * *

Consider the following compounds; for each one, report its MIC.
tested on: Pseudomonas aeruginosa; assay: Antimicrobial activity against Pseudomonas aeruginosa isolate 3066 obtained from cystic fibrosis patient by disk diffusion method; type: functional
Answers are plain numbers, in mg/L.

CO[C@@H]1[C@@H](OC(N)=O)[C@@H](O)[C@H](Oc2ccc3c(O)c(NC(=O)c4ccc(O)c(CC=C(C)C)c4)c(=O)oc3c2C)OC1(C)C :: 32
C[C@H]1[C@H](NC(=O)/C(=N\OC(C)(C)C(=O)O)c2csc(N)n2)C(=O)N1S(=O)(=O)O :: 0.25

Recall the recorded MIC for `NCC[C@H](O)C(=O)N[C@@H]1C[C@H](N)[C@@H](O[C@H]2O[C@H](CN)[C@@H](O)[C@H](O)[C@H]2O)[C@H](O)[C@H]1O[C@H]1O[C@H](CO)[C@@H](O)[C@H](N)[C@H]1O` with Pseudomonas aeruginosa and state it.
128
